These data points were gathered from ChEMBL document CHEMBL1126408.

Organism: Rattus norvegicus
Test: Antagonistic activity as a measure of bombesin-induced phosphoinositide turnover in rat pituitary GH3 cells; 1.5-3 uM
Format: functional, cell-based
Observable: pIC50
Bear in mind: pIC50 is minus log10 of a mol/L concentration; give just that figure.

{"Molecule": "O=C1NC(=O)C2(N1)C(=O)N(Cc1ccc(Cl)c(Cl)c1)c1ncc(Br)cc12 (configuration not stated)", "Observable": "pIC50", "Measurement": 5.82}

Then there is this molecule:
stdin: Value lookup for pIC50; key = `CCN1C(=O)/C(=C/c2cc(C(C)(C)C)c(O)c(C(C)(C)C)c2)c2cc(OCc3ccccc3C(=O)O)ccc21`
stdout: 5.82
